assay.remarks: HPLC determination of tBuOOH in mice brains (pharmacokinetic profile)
Assay type: in vivo, mouse (male C57BL/6)
conditions.used: mouse, brain, icv or intrathecal; 110 mg/kg ICV; 8 month old mice
reported.property: concentration at 10 min

compound="CC(C)(C)OO [tBuOOH, t-butylhydroperoxide]" reported_property="concentration at 10 min" experimental_value="~1000 µM"

====

assay.remarks: HPLC determination of tBuOOH in mice brains (pharmacokinetic profile)
Type: in vivo, mouse (male C57BL/6)
conditions.used: mouse, icv or intrathecal; 110 mg/kg ICV; depending on the brain region
reported.property: half-life

compound="CC(C)(C)OO [tBuOOH, t-butylhydroperoxide]" experimental_value="4 to 20 min"
